FYI, the data here is from PubChem BioAssay.

Assay: A549 cell viability effects, profiling panel, calcein-AM fluorescence, 48 h, basal (AID 1162); also: test concentration not given here
Details: higher = more signal
metric: z-score
Give bare numbers.

// known answers, use as guide
# compound, z-score
data = [
    ("CCCCN1CC=CC23O[C@@H]4C=CCOC(=O)[C@@H]4[C@H]2C(=O)N(C(C)CO)[C@@H]3C1=O (some centres not stated)", -0.406),
    ("CC(C)(C)N1CC=CC23O[C@@H]4C=CCOC(=O)[C@@H]4[C@H]2C(=O)N(CCCO)[C@@H]3C1=O (some centres not stated)", 0.495),
    ("CCCC[C@@H]1C[C@H]1[C@@H](NC(=O)c1cccnc1)c1ccc(-c2ccccc2)cc1", -1.42),
    ("O=C(O)[C@]1(Cc2ccccc2)N=C(c2ccc(OCCCO)cc2)O[C@@H]1c1ccccc1", 1.07),
    ("COC(=O)[C@@]1(Cc2ccc(OC)cc2)[C@H]2c3cc(C(=O)N(C)C)n(Cc4ccccc4)c3C[C@H]2CN1C(=O)c1ccccc1", 0.0457),
    ("C=CCN1Cc2ccccc2C[C@@]2(N=C(c3ccc(OCCCO)cc3)O[C@H]2c2ccccc2)C1=O", -1.46),
]

Kindly give each listed record's z-score.
1. C=CC1c2cc(O)c(OC)cc2CCN1Cc1sc2ccccc2c1Cl (configuration not stated)
2. CN(C)CCCNC(=O)[C@@H]1c2ccccc2C(=O)N(Cc2ccc(OC(F)(F)F)cc2)[C@H]1c1ccc(CO)cc1
3. O=C1c2ccccc2[C@](Cc2ccccc2I)(C(=O)NCc2ccccc2)[C@H](c2ccc(CO)cc2)N1C1CCCCC1
4. C#CCNC(=O)[C@H](Cc1ccccc1)NC(=O)[C@@H](N=[N+]=[N-])C(C)C
5. [N-]=[N+]=Nc1ccccc1C[C@@]1(C(=O)O)N=C(c2ccc(OCCCO)cc2)O[C@@H]1c1ccccc1
6. C=C(CCCC)C(=O)CC[C@@H](OC(=O)c1cccnc1)c1ccccc1OCCO
7. C[C@]12C(=O)N(CCCCCCO)[C@@H]3C(=O)N(c4ccc(Cl)cc4)CC=CC31O[C@@H]1/C=C\CCCOC(=O)C12 (some centres not stated)
8. [N-]=[N+]=Nc1ccccc1[C@H]1OC(c2ccc(OCCCO)cc2)=N[C@@]1(CCS(=O)(=O)c1ccccc1)C(=O)N1CCCCC1

Key:
1: -4.28; 2: 1.71; 3: -0.475; 4: -0.447; 5: -0.0649; 6: -0.528; 7: 0.41; 8: -0.851

Kindly give each listed record's z-score.
1. COc1ccc([Si](C)(C)[C@@H]2[C@@H](CCn3cc([C@H](O)c4ccccc4)nn3)O[C@]3(C(=O)N(Cc4ccc(N5CCOC5=O)cc4)c4ccccc43)[C@H]2C)cc1
2. COC(=O)[C@]1(CCS(=O)(=O)c2ccccc2)N=C(c2ccc(OCCCO)cc2)O[C@@H]1c1ccccc1CN=[N+]=[N-]
3. CC=CC(O)C1C=CC2C(=O)N(C)C(=O)C2N1Nc1ccc([N+](=O)[O-])cc1[N+](=O)[O-] (configuration not stated)
4. CC(C)(C)OC(=O)CC[C@@]1(C(=O)O)N=C(c2ccc(OCCCO)cc2)O[C@@H]1c1ccccc1
5. COc1cc(OC)c(C(O)C2C=CC3C(=O)N(c4ccccc4)C(=O)C3N2Nc2ccc(C#N)cc2)cc1Br (configuration not stated)
6. COCC(=C=CC[C@H](O)c1cccc(OCCO)c1)C[C@H](O)c1ccccn1
7. CN1C(=O)[C@@]2(CCS(=O)(=O)c3ccccc3)N=C(c3ccc(OCCCO)cc3)O[C@H]2c2ccccc21

Key:
1. -0.0046
2. -2.82
3. -0.481
4. -0.662
5. 0.423
6. 1.39
7. 0.524

Kindly give each listed record's z-score.
1. COCCCNC(=O)[C@]1(CCC(=O)OC(C)(C)C)N=C(c2ccc(OCCCO)cc2)O[C@@H]1c1ccccc1
2. CC(C)(C)OC(=O)CC[C@]1(C(=O)NCCN2CCOCC2)N=C(c2ccc(OCCCO)cc2)O[C@H]1c1ccccc1N=[N+]=[N-]
3. C[C@]1(C(=O)NCCN2CCOCC2)c2ccccc2C(=O)N(Cc2ccc(OC(F)(F)F)cc2)[C@H]1c1ccc(CO)cc1

Key:
[0.369, -0.877, 0.742]

Kindly give each listed record's z-score.
1. O=C1C[C@]2(c3ccc([N+](=O)[O-])cc3)C(=O)N(Cc3ccccc3)c3cc(CO)ccc3[C@H]2N1CC12CC3CC(CC(C3)C1)C2
2. C[N+](C)(C)CCCC[C@@H]1NC(=O)[C@@H]2C[C@H](C(=O)O)[C@H](c3ccc(O)cc3)N2C1=O
3. CN1C(=O)C2C=CC(C(O)Cc3ccccc3)N(N(c3ccccc3)c3ccccc3)C2C1=O (configuration not stated)
4. C=C(/C(=C/C[C@@H](OC(=O)c1ccncc1)c1ccc(OCCO)cc1)c1cc(C(=O)OC)ccc1OC)C(C)C

Key:
1. 0.376
2. -0.643
3. 1.02
4. -0.738

Kindly give each listed record's z-score.
1. O=C1O[C@@H](c2ccccc2)[C@@H](c2ccccc2)N2[C@@H](c3ccc(O)cc3)[C@]3(C(=O)Nc4ccccc43)[C@@H](C(=O)Nc3nc4ccccc4s3)[C@H]12
2. COc1ccc(NC(=O)O[C@H]2[C@H](OC(=O)Nc3ccc4c(c3)OCO4)[C@@H](OC(=O)Nc3ccc4c(c3)OCO4)[C@@H](OC)O[C@@H]2CO)cc1
3. O=C(N1CCCCC1)[C@@]1(Cc2ccccc2)COC(c2ccc(OCCCO)cc2)=N1
4. CC(C)OC(=O)CC(=O)CC(O)c1cccc(C#N)c1 (configuration not stated)

Key:
1. -2.07
2. -1.11
3. -1.14
4. 1.59

---

Biological target: NADPH oxidase 4 (Homo sapiens) (UniProt Q9NPH5)
Sequence (Q9NPH5 whole entry, looked up): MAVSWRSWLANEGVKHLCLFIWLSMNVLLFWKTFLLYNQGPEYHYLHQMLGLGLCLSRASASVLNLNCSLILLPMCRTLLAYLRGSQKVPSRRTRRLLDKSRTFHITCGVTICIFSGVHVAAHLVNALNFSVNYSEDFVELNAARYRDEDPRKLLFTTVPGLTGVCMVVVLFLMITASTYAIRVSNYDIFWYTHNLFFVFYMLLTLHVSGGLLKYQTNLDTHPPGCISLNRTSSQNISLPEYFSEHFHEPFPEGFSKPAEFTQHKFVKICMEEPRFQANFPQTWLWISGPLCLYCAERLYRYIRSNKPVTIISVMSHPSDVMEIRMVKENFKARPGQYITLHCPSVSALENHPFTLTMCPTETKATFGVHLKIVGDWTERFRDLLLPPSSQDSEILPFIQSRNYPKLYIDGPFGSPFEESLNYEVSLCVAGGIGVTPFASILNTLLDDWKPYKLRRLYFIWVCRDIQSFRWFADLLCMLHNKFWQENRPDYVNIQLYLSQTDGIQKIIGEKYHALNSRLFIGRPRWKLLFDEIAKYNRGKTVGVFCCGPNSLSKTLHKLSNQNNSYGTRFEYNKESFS
Test: NOX4-dependent H2O2 signal modulators, primary screen, NOX inhibitor project, cell-based, HEK293-NOX4, tetracycline-induced, Amplex Red fluorescence (AID 1160)
Conditions: 45 min, higher = more signal, called active from +8 up or from −8 down
# cutoff -0.6 applies to z-score; >= gives yes (1), < gives no (0)

Record excerpt, results attached:
# compound, cat
measured = [
    ("NC(=O)N1C(=O)C2C(C1=O)C1C=C(c3ccc(CO)cc3)C2C(C2CC2)N1Cc1sc2ccccc2c1Cl (configuration not stated)", "yes (1)"),
    ("Cc1ccc(S[C@]2(C(=O)NCC(C)C)CC(=O)N(Cc3ccccc3Cl)[C@@H]2c2ccc(CO)cc2I)cc1", "yes (1)"),
    ("Cc1ccc(S[C@]2(C(=O)O)CC(=O)N(Cc3ccccc3Cl)[C@@H]2c2ccc(CO)cc2)cc1", "no (0)"),
    ("Cc1ccc(C(C)CC(O)C2C=CC3C(=O)N(c4ccccc4)C(=O)C3N2Nc2ccc(C(C)C)cc2)o1 (configuration not stated)", "no (0)"),
    ("C=CCNC(=O)[C@@H]1[C@H]2C(=O)O[C@H](c3ccccc3)[C@H](c3ccccc3)N2[C@H](c2ccc(OCCO)cc2)[C@@]12C(=O)N(C(=O)OCCOC)c1ccc(C#CC3=CCCCC3)cc12", "yes (1)"),
]

Lab note: next compound to report on.
Exercise: Confirm if z-score reported for the compound C[C@@H]1ON(c2ccc(C(=O)OC(C)(C)C)cc2)[C@H](c2ccc(Br)cc2)[C@H]1C(=O)N1C(=O)OC[C@H]1Cc1ccccc1 is -0.6 or above.
Key: yes (1)

---

Test system: PRMT1 (protein arginine N-methyltransferase 1)
Experiment: PRMT1 binders on small-molecule microarrays, primary screen, biochemical, small-molecule microarray, 635 nm fluorescence (AID 1088);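 also: binding of Prmt1 protein to compounds spotted on small-molecule microarray slides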
Conditions: small-molecule microarray binding, higher = more signal
metric: composite z-score
Give bare numbers.

// known answers, use as guide
# compound, systemTested, composite z-score
records = [
    ("O=C1OCC=C[C@H]2OC34C=CCN(Cn5nnc6ccccc65)C(=O)[C@H]3N(CCCCCCO)C(=O)[C@@H]4[C@@H]12 (stereo partly drawn)", "PRMT1 (protein arginine N-methyltransferase 1)", -0.184),
    ("CC(C)C[C@@H]1NC(=O)[C@H]2C[C@@H](C(=O)NCCCCCC[N+](C)(C)C)[C@@H](c3cccc(OCCO)c3)N2C1=O", "PRMT1 (protein arginine N-methyltransferase 1)", 1.13),
    ("C=C(CCCC)/C(=C/C[C@@H](OC(C)=O)c1ccc(CO)o1)c1cc(C(=O)OC)ccc1OC", "PRMT1 (protein arginine N-methyltransferase 1)", 1.57),
    ("O=C1OCCC=C[C@H]2OC34C=CCN(c5ccc(Cl)cc5)C(=O)[C@H]3N(CCCCCO)C(=O)[C@@H]4C12 (stereo partly drawn)", "PRMT1 (protein arginine N-methyltransferase 1)", 0.536),
]

Kindly give each listed record's composite z-score.
1. [N-]=[N+]=Nc1ccccc1[C@@H]1OC(c2ccc(OCCCO)cc2)=N[C@]1(CCS(=O)(=O)c1ccccc1)C(=O)NCCN1CCOCC1
2. [N-]=[N+]=Nc1ccccc1C[C@@]1(C(=O)O)N=C(c2ccc(OCCCO)cc2)O[C@@H]1c1ccccc1
3. COC(=O)[C@H](Cc1ccccc1)N1CC(/C=C/C2CC2)=C[C@@H]1[C@@H](O)Cc1ccccc1
4. O=C(O)[C@H]1C[C@H]2C(=O)N3CCC[C@H]3C(=O)N2[C@H]1c1cccc(OCCO)c1

Key:
1.55
0.616
1.46
1.04
